Source listed as the supplement of paper PMC9732359.

# methodNotes: protein stability index of a GFP-peptide fusion (yeast GPS) (PSI 1-4); higher = more stable; sorted into four equal gates, so the index is relative within each strain
# assayContext: doa10∆
Classify as follows. Reported protein stability index greater than or equal to 3: y. Reported protein stability index below: n.

- MRLIKRVRAESLHSNSF [YJL039C/NUP192]: n
- ILGIAGEDFAVLAGDTR [PRE7]: y
- RSDLQSKIQEIESIRSC [YIL149C/MLP2]: n
- AISGKKTTYYYYNEEGI [RPC82]: n
- KGYLQRGDDGESYAYLA [CDC53]: y
- YIIQGSNTNDNISIITL [RGR1]: n
- FPQYKLTTFANQVMMDR [ARP7]: n
- TILSSKLSNIWMQRQLI [SRB2]: n
- KSNRSYSIALSNVAAIF [GAL11]: n
- MDQDNNNHNDSNRLHPP [GRR1]: n
- IYRTTRQDGSYTYHSTN [ARP9]: n
- YRSHIFATNEERQMNFL [SWI3]: y
- HGIVFQHPFPLAHSQHR [SSN2]: n
- EESINEFKSIEIEMKNK [SMC4]: y
- TPSDLSESGSKLNVDQF [POP1]: y
- TKHPSLKTLTHKQIHTT [POP7]: n
- RRILAAAAAAAAAVSGN [SSN3]: n
- ETHSKKRKKEANEEPNT [ITC1]: n
- YGKVYKAKRQINSGTNS [SSN3]: n
- TTDKNTTDDKSMDTKKK [BRN1]: y
- LIIKYQKYWESMRIQIL [GAL11]: n
